assay: HPLC peptide recovery before and after freeze-drying; conditions: After freeze dry T = 0

sequence_content: IPSGTTILNCFHDVLSGKLSGGSPGVP (Mut29A) [Mut 29a]
Amount from non-validated HPLC assay, mg/mL: 0.38

sequence_content: NIEGIDKLTQLKKPFLVNNKINKIENI (Mut28) [Mut 28]
Amount from non-validated HPLC assay, mg/mL: 0.50

sequence_content: VVDRNPQFLDPVLAYLMKGLCEKPLAS (Mut17) [Mut 17]
Amount from non-validated HPLC assay, mg/mL: 0.27

sequence_content: SHCHWNDLAVIPAGVVHNWDFEPRKVS (Mut48) [Mut 48]
Amount from non-validated HPLC assay, mg/mL: 0.38

sequence_content: STANYNTSHLNNDVWQIFENPVDWKEK (Mut25) [Mut 25]
Amount from non-validated HPLC assay, mg/mL: 0.54

sequence_content: PKPDFSQLQRNILPSNPRVTRFHINWD (Mut22) [Mut 22]
Amount from non-validated HPLC assay, mg/mL: 0.51

sequence_content: CGTAFFINFIAIYHHASRAIPFGTMVA (Mut36) [Mut 36]
Amount from non-validated HPLC assay, mg/mL: 0.19

sequence_content: TAVITPPTTTTKKARVSTPKPATPSTD (Mut24) [Mut 24]
Amount from non-validated HPLC assay, mg/mL: 0.44

sequence_content: PSKPSFQEFVDWENVSPELNSTDQPFL (Mut30) [Mut 30]
Amount from non-validated HPLC assay, mg/mL: 0.51

sequence_content: GFSQPLRRLVLHVVSAAQAERLARAEE (Mut50) [Mut 50]
Amount from non-validated HPLC assay, mg/mL: 0.42

sequence_content: EFKHIKAFDRTFANNPGPMVVFATPGM (Mut44) [Mut 44]
Amount from non-validated HPLC assay, mg/mL: 0.47

sequence_content: ECRITSNFVIPSEYWVEEKEEKQKLIQ (Mut45) [Mut 45]
Amount from non-validated HPLC assay, mg/mL: 0.44

sequence_content: SFACLRQPSQGPTVGVKGGAAGGGYAQ (Mut29B) [Mut 29b]
Amount from non-validated HPLC assay, mg/mL: 0.48

----------
experiment: HPLC peptide recovery before and after freeze-drying; conditions: After freeze dry T = 1M, stored at −20° C.

sequence_content: SHCHWNDLAVIPAGVVHNWDFEPRKVS (Mut48) [Mut 48]
Amount from non-validated HPLC assay / mg/mL: 0.37
--
sequence_content: PKPDFSQLQRNILPSNPRVTRFHINWD (Mut22) [Mut 22]
Amount from non-validated HPLC assay / mg/mL: 0.47
--
sequence_content: PSKPSFQEFVDWENVSPELNSTDQPFL (Mut30) [Mut 30]
Amount from non-validated HPLC assay / mg/mL: 0.51
--
sequence_content: NIEGIDKLTQLKKPFLVNNKINKIENI (Mut28) [Mut 28]
Amount from non-validated HPLC assay / mg/mL: 0.50
